test system: SEM cells; assay: cell viability relative to DMSO control; higher = less cytotoxic; settings: RPMI 5 mM glucose + 10% FBS; 48 h; 0.19 µM
MEASUREMENT KIND: cell viability (%)
# number only, unit % dropped from output

Consider the reported cell viability for these compounds:
CC(=O)N1CCN(c2ccc(OCc3nn(C)c(C)c3-c3cccc4c(CCCOc5cccc6ccccc56)c(C(=O)O)n(Cc5cccnc5)c34)cc2)CC1	103
Cn1cc(-c2ccc3nnc(C(F)(F)c4ccc5ncccc5c4)n3n2)cn1	132
C1CCC(C(CC2CCCCN2)C2CCCCC2)CC1 (stereo not given)	117

Now for another entry.
-- ask Requested read-out: cell viability. Entry: CC1=C(C=CC=C1)N2\C(=N/C3=C(C(=CC=C3)C)C2=O)C[N]4N=CC5=C4N=CN=C5N
-- reply 136
